Values compiled from PubChem BioAssay.

assay summary: modulators of HCV replicon luciferase signal, primary screen, HCV replication inhibitor project, Huh7 cells, luciferase reporter (AID 1109);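 note: huh7 hepatoma cells harbouring a luciferase neomycin HCV replicon reporter; luciferase luminescence as measure of HCV replicon replication; test concentration not given here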
condition: 48 h, higher = more signal
Decision: z-score compared against -2; not below it gives 1.0, below it gives 0.0.

These recorded examples may help you get a feel for the data.
QUERY: In plain terms: is recorded z-score at least -2 for CC1CC/C=C\[C@H]2OC34C=CCN(CCN5CCOCC5)C(=O)[C@H]3N(C(C)CO)C(=O)[C@@H]4C2C(=O)O1 (stereo not given in full) ?
RESULT: 1.0

QUERY: In plain terms: is recorded z-score at least -2 for COc1cc(NN2C(C(O)c3cc(OC)c(OC)c(OC)c3)C=CC3C(=O)N(c4ccccc4)C(=O)C32)cc(OC)c1OC (stereo not given) ?
RESULT: 1.0

QUERY: In plain terms: is recorded z-score at least -2 for COC(=O)[C@@]1(Cc2ccc(F)cc2)[C@H]2c3cc(C(=O)N(C)C)n(Cc4ccc(O)c(OC)c4)c3C[C@H]2CN1C(=O)c1ccccc1 ?
RESULT: 1.0

QUERY: In plain terms: is recorded z-score at least -2 for Cc1ccc(F)cc1S(=O)(=O)N[C@@H]1CCN(Cc2cccc3[nH]ccc23)C1 ?
RESULT: 1.0

Next:
QUERY: In plain terms: is recorded z-score at least -2 for [N-]=[N+]=Nc1ccccc1C[C@]1(C(=O)O)N=C(c2ccc(OCCCO)cc2)O[C@H]1c1ccccc1N=[N+]=[N-] ?
RESULT: 1.0

QUERY: In plain terms: is recorded z-score at least -2 for CCOC(=O)C=Cc1cc(F)ccc1O ?
RESULT: 1.0

QUERY: In plain terms: is recorded z-score at least -2 for CO[C@H]1O[C@H](CO)[C@@H](OC(=O)CCc2ccccc2)[C@H](OC(=O)c2cc3ccccc3[nH]2)[C@H]1OC(=O)c1cc2ccccc2[nH]1 ?
RESULT: 0.0

QUERY: In plain terms: is recorded z-score at least -2 for COCCCNC(=O)[C@@]1(Sc2ccc(C)cc2)CC(=O)N(C(C)C)[C@@H]1c1ccc(CO)cc1I ?
RESULT: 0.0

QUERY: In plain terms: is recorded z-score at least -2 for C=CCNC(=O)[C@@H]1[C@H]2C(=O)O[C@H](c3ccccc3)[C@H](c3ccccc3)N2[C@H](c2ccc(O)cc2)[C@@]12C(=O)N(C(=O)OCCOC)c1ccc(C#CCCO)cc12 ?
RESULT: 1.0
